experiment: Pharmacokinetics in 300/400 mg BID study; type: in vivo, human; details: female, human, plasma, oral, 300 mg, Repeat dose Day 35, Female 300 mg bid (N = 21)
Observed Property: Cmax (ng/mL)
Give just the numeric value; ng/mL need not be written.

input: Entry Cl.NC(=O)[C@@H]1CC[C@H](c2ccc(OCc3ccccc3F)cc2)N1 : reported Cmax = ?
output: 3990

====

test: Pharmacokinetics in 300/400 mg BID study; assay type: in vivo, human; details: female, human, plasma, oral, 400 mg, Single Dose (400 mg), Female (N = 22)
Observed Property: half-life

input: Entry Cl.NC(=O)[C@@H]1CC[C@H](c2ccc(OCc3ccccc3F)cc2)N1 : reported half-life = ?
output: ~9 h

====

test: Pharmacokinetics in 300/400 mg BID study; format: in vivo, human; conditions: female, human, plasma, oral, 300 mg, Repeat dose Day 14, Female 300 mg bid (N = 21); read-out: C12 h
Observed Property: concentration at 12 h
Kindly format the answer as number then unit.

input: Entry Cl.NC(=O)[C@@H]1CC[C@H](c2ccc(OCc3ccccc3F)cc2)N1 [Example 1, hydrochloride] : reported concentration at 12 h = ?
output: 1440 ng/mL

====

assay: Carbamazepine interaction study, BIIB074 steady-state PK; assay type: in vivo, human; details: human, in vivo, oral, 150 mg, day 21, Placebo (Group 2), BIIB074 150 mg TID; read-out: Cmax Adj Geo Mean
Observed Property: Cmax (ng/mL)
Give just the numeric value; ng/mL need not be written.

input: Entry Cl.NC(=O)[C@@H]1CC[C@H](c2ccc(OCc3ccccc3F)cc2)N1 : reported Cmax = ?
output: 2930

====

Test: Pharmacokinetics in 300/400 mg BID study
Type: in vivo, human
Settings: female, human, plasma, oral, 300 mg, Repeat dose Day 1, Female 300 mg bid (N = 21); read-out: AUC(0-12)
Method: The primary endpoint was change in 24 h average SBP and DBP from baseline to day 36 as determined by ABPM. […] ABPM data were analyzed using a repeated measures mixed effects model, whereby fixed effects were treatment, day, treatment*day, period, average baseline*day, period adjusted baseline*day, sex and treatment*sex; random effect was subject; and repeated effect was day. […] PK parameters were calculated by standard non-compartmental analysis according to working practices and using Wn Nonlin Pro v. […]
Observed Property: AUC(0-t) (ng·h/mL)
Give just the numeric value; ng·h/mL need not be written.

input: Entry Cl.NC(=O)[C@@H]1CC[C@H](c2ccc(OCc3ccccc3F)cc2)N1 : reported AUC(0-t) = ?
output: 16200

====

assay: Pharmacokinetics in 300/400 mg BID study; type: in vivo, human; conditions: male, human, plasma, oral, 400 mg, Repeat dose Day 1, Male 400 mg bid (N = 33)
Observed Property: Cmax (ng/mL)
Give just the numeric value; ng/mL need not be written.

input: Entry Cl.NC(=O)[C@@H]1CC[C@H](c2ccc(OCc3ccccc3F)cc2)N1 [Example 1] : reported Cmax = ?
output: 3210

====

assay: Pharmacokinetics in 300/400 mg BID study; assay type: in vivo, human; conditions: male, human, plasma, oral, 400 mg, Repeat dose Day 1, Male 400 mg bid (N = 33)
Observed Property: Tmax (h)
Give just the numeric value; h need not be written.

input: Entry Cl.NC(=O)[C@@H]1CC[C@H](c2ccc(OCc3ccccc3F)cc2)N1 : reported Tmax = ?
output: 1

====

assay: Pharmacokinetics in 300/400 mg BID study; type: in vivo, human; details: female, human, plasma, oral, 400 mg, Single Dose (400 mg), Female (N = 22); read-out: AUC(0-12)
Observed Property: AUC(0-t) (ng·h/mL)
Give just the numeric value; ng·h/mL need not be written.

input: Entry Cl.NC(=O)[C@@H]1CC[C@H](c2ccc(OCc3ccccc3F)cc2)N1 [Example 1] : reported AUC(0-t) = ?
output: 24200

====

experiment: Pharmacokinetics in 300/400 mg BID study; format: in vivo, human; details: female, human, plasma, oral, 300 mg, Repeat dose Day 1, Female 300 mg bid (N = 21); read-out: C12 h
Observed Property: concentration at 12 h (ng/mL)
Give just the numeric value; ng/mL need not be written.

input: Entry Cl.NC(=O)[C@@H]1CC[C@H](c2ccc(OCc3ccccc3F)cc2)N1 [Example 1, hydrochloride] : reported concentration at 12 h = ?
output: 746

====

experiment: Pharmacokinetics in 300/400 mg BID study; assay type: in vivo, human; settings: female, human, plasma, oral, 400 mg, Single Dose (400 mg), Female (N = 22); read-out: AUC(0-24)
Observed Property: AUC(0-t) (ng·h/mL)
Give just the numeric value; ng·h/mL need not be written.

input: Entry Cl.NC(=O)[C@@H]1CC[C@H](c2ccc(OCc3ccccc3F)cc2)N1 : reported AUC(0-t) = ?
output: 48300

====

test: Carbamazepine interaction study, BIIB074 steady-state PK; assay type: in vivo, human; conditions: human, in vivo, oral, 150 mg TID, day 28, Carbamazepine (Group 1), 7 days after CBZ discontinuation; read-out: Cmax Adj Geo Mean
Observed Property: Cmax

input: Entry Cl.NC(=O)[C@@H]1CC[C@H](c2ccc(OCc3ccccc3F)cc2)N1 : reported Cmax = ?
output: 2150 ng/mL

====

Test: Carbamazepine interaction study, BIIB074 steady-state PK
Assay type: in vivo, human
Conditions: human, in vivo, oral, 150 mg TID, day 28, Placebo (Group 2); read-out: Cmax Adj Geo Mean
Procedure: The interaction between BIIB074 and carbamazepine (CBZ) was investigated in a double-blind, randomized, placebo-controlled, 3-period, phase-1 study. Healthy subjects were randomized by sex to either CBZ (100 mg twice daily [BID] days 1-3, 200 mg BID days 4-21) or placebo (BID days 1-21). During days 16-21, subjects in both groups also received BIIB074 150 mg 3-times daily (TID). […]
Observed Property: Cmax (ng/mL)
Give just the numeric value; ng/mL need not be written.

input: Entry Cl.NC(=O)[C@@H]1CC[C@H](c2ccc(OCc3ccccc3F)cc2)N1 [Example 1] : reported Cmax = ?
output: 2730

====

experiment: Carbamazepine interaction study, BIIB074 steady-state PK; assay type: in vivo, human; conditions: human, in vivo, oral, 150 mg TID, day 28, Placebo (Group 2); read-out: AUC(0-tau) Adj Geo Mean
Observed Property: AUC (ng·h/mL)
Give just the numeric value; ng·h/mL need not be written.

input: Entry Cl.NC(=O)[C@@H]1CC[C@H](c2ccc(OCc3ccccc3F)cc2)N1 : reported AUC = ?
output: 16000

====

assay: Pharmacokinetics in 300/400 mg BID study; format: in vivo, human; conditions: male, human, plasma, oral, 400 mg, Repeat dose Day 35, Male 400 mg bid (N = 33); read-out: C12 h
Observed Property: concentration at 12 h (ng/mL)
Give just the numeric value; ng/mL need not be written.

input: Entry Cl.NC(=O)[C@@H]1CC[C@H](c2ccc(OCc3ccccc3F)cc2)N1 [Example 1, hydrochloride] : reported concentration at 12 h = ?
output: 1460

====

test: Pharmacokinetics in 300/400 mg BID study; format: in vivo, human; conditions: male, human, plasma, oral, 400 mg, Repeat dose Day 14, Male 400 mg bid (N = 33); read-out: C12 h
Observed Property: concentration at 12 h (ng/mL)
Give just the numeric value; ng/mL need not be written.

input: Entry Cl.NC(=O)[C@@H]1CC[C@H](c2ccc(OCc3ccccc3F)cc2)N1 [Example 1, hydrochloride] : reported concentration at 12 h = ?
output: 1590
